The entries below come with measured switch fluorescence ratio values attached.
- Tested on: ATP;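 further: ATP exposure 15 min at 22 °C before imaging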
- method-summary: switch fluorescence ratio, 500 uM ATP over buffer (Cy3 cluster intensity, sum of 5 cycles each) (fold (ratio)); higher = stronger signal-on switching upon ATP binding; sequences stand for … in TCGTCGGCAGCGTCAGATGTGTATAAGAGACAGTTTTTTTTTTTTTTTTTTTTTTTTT…TC
- assay-conditions: aptamer strand: ATP DNA aptamer (quencher-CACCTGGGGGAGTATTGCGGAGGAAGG + anchor), 100 nM annealed; ATP concentration: 500 uM
reported-property: switch fluorescence ratio

# residue-codes, reported-property, observed
records = [
    ("TTTAAGTAGT", "switch fluorescence ratio", 1.01),
    ("TGACCGAGAA", "switch fluorescence ratio", 1.06),
    ("TCCCGGCCTG", "switch fluorescence ratio", 1.01),
    ("TCAGGGGGGG", "switch fluorescence ratio", 1.02),
]

All figures here come from the supplement of paper PMC10126150.
